Reference for the values: patent US20250026827A1

The following binders are shown together with reported FOB values.
Biological target: T1, human SIRPα on cells (human, UniProt P78324 31-504)
T1 construct: Whole entry
Assay: flow cytometry;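 further: antibody binding to cells detected with a PE-labelled secondary antibody, given as mean fluorescence intensity relative to background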
Experimental Endpoint: FOB

Binder	Result
SB-2-7 (antibody, V domains shown, IgG) VH: EVQLLESGGGLVQPGGSLRLSCAASGFTFARYGMHWVRQAPGKGLEWVSAISGLAGPTYADSVKGRFTISRDNSKNTLYLQMNSLRAEDTAVYYCARDQTAAAAIWGMDVWGQGTTVTVSS VL: EVVLTQSPGTLSLSPGERATLSCRASQSVSSSYLAWYQQKPGQAPRLLIYGASSRATGIPDRFSGSGSGTDFTLTISRLEPEDFAVYYCQQSSSHPFTFGGGTKVEIK	1 fold over background
SB-40-19 (antibody, V domains shown, IgG) VH: QVQLVQSGAEVKKPGASVKVSCKASGYTFTSYYMVWVRQAPGQGLEWMGIINPSSGATNYAQKFQGRVTMTTDTSTSTAYMELRSLRSDDTAVYYCARDTGEYSYSPHGMDVWGQGTTVTVSS VL: EIVLTQSPATLSLSPGERATLSCRASQSVSSYLAWYQQKPGQAPRLLIYDSSNRATGIPARFSGSGSGTDFTLTISSLEPEDFAVYYCQQRDEHPPWTFGGGTKVEIK	1 fold over background
